- ASSAY OVERVIEW: OD615 S. cerevisiae growth inhibition, permissive medium, pilot counter-assay, permissive growth control for S. cerevisiae lifespan shortening project (AID 705)
- SETTINGS: OD615, 24 h, at 10 µM, stronger effect = higher value
OBSERVABLE: growth inhibition (%)
The figure you give is taken to be in %; do not add the unit.

Example entries and their recorded answers appear below.
>>> reported("COc1ccccc1C(=O)Nc1nnn(C)n1")
-26.5
>>> reported("CC(C)CC(=O)Nc1c2c(nn1-c1ccc(F)cc1)CSC2")
-13.9

Query: I would be grateful if you could share the reported growth inhibition for CCCC(=O)NCCCc1nc2ccccc2n1CCC .
Result: -2.54

Query: Query Cc1ccc(-c2nc(CS(=O)(=O)CC(=O)N3CC(C)CC(C)C3)c(C)o2)cc1 (stereo unspecified) next
Result: 0.15

Query: Now give it for COc1ccc(Nc2oc(COc3ccccc3F)nc2C#N)cc1 too.
Result: -10.6

Query: Input COC(=O)c1ccc2c(c1)N(Cc1cc(C)ccc1C)C(=O)c1ccccc1S2=O (stereo unspecified)
Result: -0.815

Query: For CN(C)c1oc(-c2ccccc2Cl)nc1S(=O)(=O)c1ccccc1 then?
Result: -17.1

* * *

- ASSAY OVERVIEW: growth inhibitors of H69AR lung tumor, primary screen, human, duplicate replicates (AID 580);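 note: 100% = mean luminescence of untreated wells and 0% = no signal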
- SETTINGS: H69AR lung tumor cells viability, ATP luminescence, 72 h; at 10 µM; stronger effect = lower value
Param label: returns met when viability < 80%, returns not met otherwise, including exact equality.

Before answering, review these 3 worked examples.
>>> label_class("O=C(CNC1CCCCCC1)Nc1ccc(S(=O)(=O)NC2CC2)cc1")
"not met"
>>> label_class("CCCNC(=O)c1ccccc1NC(=O)CN(c1ccccc1OCC)S(C)(=O)=O")
"not met"
>>> label_class("CCCC1(C(=O)OCC)NC(c2ccc(N(C)C)cc2)C2C(=O)N(c3ccccc3)C(=O)C21 (stereo not given)")
"not met"

Query: Please determine if CCCNS(=O)(=O)c1ccc(C(=O)NCC2CCCO2)cc1 (stereo not given) is below 80% in terms of viability.
Result: not met

Query: What would you report for c1ccc(-c2nnc(-c3ccco3)n2-c2ccccc2)cc1 ?
Result: not met

Query: // query: Cc1sc2c(c1C)CN(C1CC(C)(C)NC(C)(C)C1)CN2C(=O)c1ccco1
Result: not met

Query: Now consider Cc1cn([C@H]2C[C@H](N=[N+]=[N-])[C@@H](CO)O2)c(=O)[nH]c1=O and answer again.
Result: not met

Query: Also need Cc1ccc2[nH]c3c(c2c1)CCc1cn[nH]c1-3 , thanks.
Result: met

Query: What do you get for COc1cc(OC)cc(-c2nc3cc(C)ccc3o2)c1 ?
Result: met

Query: Entry Cc1cccn2c(=O)c3cc(C#N)c(=NC(=O)c4cccnc4)n(CC4CCCO4)c3nc12 (stereo not given) please
Result: met

* * *

Reported viability values are given for each entry in this list.
- ASSAY OVERVIEW: growth suppression of beta-catenin knockout HCT116, pilot screen, human colon tumor cells (AID 823);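 note: 0% = wells killed by 20 µM Hyamine and 100% = untreated DMSO cell wells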
- SETTINGS: CellTiter-Glo, 60 h, at 10 µM, stronger effect = lower value
Results filed as inconclusive are left out.
Field format: number, assumed %, no unit text.

>>> reported("CCCOc1ccc(S(=O)(=O)NCc2ccc(OC)cc2)cc1")
103
>>> reported("O=C(c1cc(-c2ccccc2O)on1)N1CCc2ccccc2C1")
97.9
>>> reported("Cc1cc2cc(CNS(=O)(=O)N(C)C)ccc2[nH]1")
101

Query: viability for Clc1ccc(-c2nnn(Cc3nc4ccccc4s3)n2)cc1 ?
Result: 92.6

Query: Now give it for O=C(OCC(=O)N1CCN(C(=O)c2ccco2)CC1)C1=COCCO1 too.
Result: 105

Query: And COc1ccc(NS(=O)(=O)c2cccc(-c3nnc4n3CCCCC4)c2)cc1 ?
Result: 92.6

Query: Now give it for CCOc1ccc2nc3ccc4[nH]onc4c3c2c1 too.
Result: 74.8

Query: Repeat with COC(=O)c1ccccc1NC(=O)Nc1nnc(N2CCCCC2C)s1 (centres undefined)
Result: 64.3

meta.source: PubChem BioAssay
